- Target of assay: Recombinant human MASP2 enzyme (fragment corresponding to amino acids 297-686, C-terminal His Tag) (human, UniProt O00187 297-686)
- Sequence (O00187 other isoform, or with tags, fused parts or gaps limits assumed): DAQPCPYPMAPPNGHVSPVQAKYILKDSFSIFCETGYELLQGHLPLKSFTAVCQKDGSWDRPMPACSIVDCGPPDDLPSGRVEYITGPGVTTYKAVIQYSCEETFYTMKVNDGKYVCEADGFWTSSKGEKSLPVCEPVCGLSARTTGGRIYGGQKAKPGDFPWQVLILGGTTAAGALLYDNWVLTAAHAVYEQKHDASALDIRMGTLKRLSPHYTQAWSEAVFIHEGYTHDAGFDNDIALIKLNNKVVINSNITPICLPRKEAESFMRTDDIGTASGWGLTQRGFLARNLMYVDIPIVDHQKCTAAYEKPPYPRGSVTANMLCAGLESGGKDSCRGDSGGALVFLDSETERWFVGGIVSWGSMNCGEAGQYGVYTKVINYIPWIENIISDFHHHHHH
- Experiment description: cell-based or functional assay
Bridge positions count the residues as written; N and C are the ends. Square brackets hold non-standard residues; d marks the D form. Ends that are not written are not given here. tBuAla = CC(C)(C)C[C@H](N)C(=O)O; PEG4 = NCCOCCOCCOCCOCCC(=O)O; Pen = CC(C)(S)[C@H](N)C(=O)O; 3Amb = NCc1cccc(C(=O)O)c1; Sar = CNCC(=O)O

>  <Binder>
AICSRSNPPI[Pen]IPD-NH2 (disulfide 3-11; N-terminus assumed; SMILES CC[C@H](C)[C@H](NC(=O)[C@H](C)N)C(=O)N[C@H]1CSSC(C)(C)[C@@H](C(=O)N[C@H](C(=O)N2CCC[C@H]2C(=O)N[C@@H](CC(=O)O)C(N)=O)[C@@H](C)CC)NC(=O)[C@H]([C@@H](C)CC)NC(=O)[C@@H]2CCCN2C(=O)[C@@H]2CCCN2C(=O)[C@H](CC(N)=O)NC(=O)[C@H](CO)NC(=O)[C@H](CCCNC(=N)N)NC(=O)[C@H](CO)NC1=O) [AIC+SRSNPPI-(Pen)+IPD-NH2]

>  <human MASP2 IC50>
480 nM

$$$$
>  <Binder>
[Sar][Sar][Sar][Sar][Sar]ICSRS[tBuAla]PPI[Pen]IP-NH2 (disulfide 7-15; N-terminus assumed; SMILES CC[C@H](C)[C@H](NC(=O)CN(C)C(=O)CN(C)C(=O)CN(C)C(=O)CN(C)C(=O)CNC)C(=O)N[C@H]1CSSC(C)(C)[C@@H](C(=O)N[C@H](C(=O)N2CCC[C@H]2C(N)=O)[C@@H](C)CC)NC(=O)[C@H]([C@@H](C)CC)NC(=O)[C@@H]2CCCN2C(=O)[C@@H]2CCCN2C(=O)[C@H](CC(C)(C)C)NC(=O)[C@H](CO)NC(=O)[C@H](CCCNC(=N)N)NC(=O)[C@H](CO)NC1=O) [((N-Me)G)-((N-Me)G)-((N-Me)G)-((N-Me)G)-((N-Me)G)-IC+SRS-((tBu)A)-PPI-(Pen)+IP-NH2]

>  <human MASP2 IC50>
38 nM

$$$$
>  <Binder>
[Sar]ICSRS[tBuAla]PPI[Pen]IP[PEG4]-NH2 (disulfide 3-11; N-terminus assumed; SMILES CC[C@H](C)[C@H](NC(=O)CNC)C(=O)N[C@H]1CSSC(C)(C)[C@@H](C(=O)N[C@H](C(=O)N2CCC[C@H]2C(=O)NCCOCCOCCOCCOCCC(N)=O)[C@@H](C)CC)NC(=O)[C@H]([C@@H](C)CC)NC(=O)[C@@H]2CCCN2C(=O)[C@@H]2CCCN2C(=O)[C@H](CC(C)(C)C)NC(=O)[C@H](CO)NC(=O)[C@H](CCCNC(=N)N)NC(=O)[C@H](CO)NC1=O) [((N-Me)G)-IC+SRS-((tBu)A)-PPI-(Pen)+IP-(PEG3(16atoms))-NH2]

>  <human MASP2 IC50>
65.5 nM

$$$$
>  <Binder>
[3Amb]ICSRS[tBuAla]PP[Pen]IP-NH2 (disulfide 3-10; N-terminus assumed; SMILES CC[C@H](C)[C@H](NC(=O)c1cccc(CN)c1)C(=O)N[C@H]1CSSC(C)(C)[C@@H](C(=O)N[C@H](C(=O)N2CCC[C@H]2C(N)=O)[C@@H](C)CC)NC(=O)[C@@H]2CCCN2C(=O)[C@@H]2CCCN2C(=O)[C@H](CC(C)(C)C)NC(=O)[C@H](CO)NC(=O)[C@H](CCCNC(=N)N)NC(=O)[C@H](CO)NC1=O) [(3-(Aminomethyl)benzoic acid)-IC+SRS-((tBu)A)-PP-(Pen)+IP-NH2]

>  <human MASP2 IC50>
16 nM

$$$$
